Target or test system: recombinant human PARP1 (Homo sapiens, UniProt P09874)
Sequence (P09874 whole entry): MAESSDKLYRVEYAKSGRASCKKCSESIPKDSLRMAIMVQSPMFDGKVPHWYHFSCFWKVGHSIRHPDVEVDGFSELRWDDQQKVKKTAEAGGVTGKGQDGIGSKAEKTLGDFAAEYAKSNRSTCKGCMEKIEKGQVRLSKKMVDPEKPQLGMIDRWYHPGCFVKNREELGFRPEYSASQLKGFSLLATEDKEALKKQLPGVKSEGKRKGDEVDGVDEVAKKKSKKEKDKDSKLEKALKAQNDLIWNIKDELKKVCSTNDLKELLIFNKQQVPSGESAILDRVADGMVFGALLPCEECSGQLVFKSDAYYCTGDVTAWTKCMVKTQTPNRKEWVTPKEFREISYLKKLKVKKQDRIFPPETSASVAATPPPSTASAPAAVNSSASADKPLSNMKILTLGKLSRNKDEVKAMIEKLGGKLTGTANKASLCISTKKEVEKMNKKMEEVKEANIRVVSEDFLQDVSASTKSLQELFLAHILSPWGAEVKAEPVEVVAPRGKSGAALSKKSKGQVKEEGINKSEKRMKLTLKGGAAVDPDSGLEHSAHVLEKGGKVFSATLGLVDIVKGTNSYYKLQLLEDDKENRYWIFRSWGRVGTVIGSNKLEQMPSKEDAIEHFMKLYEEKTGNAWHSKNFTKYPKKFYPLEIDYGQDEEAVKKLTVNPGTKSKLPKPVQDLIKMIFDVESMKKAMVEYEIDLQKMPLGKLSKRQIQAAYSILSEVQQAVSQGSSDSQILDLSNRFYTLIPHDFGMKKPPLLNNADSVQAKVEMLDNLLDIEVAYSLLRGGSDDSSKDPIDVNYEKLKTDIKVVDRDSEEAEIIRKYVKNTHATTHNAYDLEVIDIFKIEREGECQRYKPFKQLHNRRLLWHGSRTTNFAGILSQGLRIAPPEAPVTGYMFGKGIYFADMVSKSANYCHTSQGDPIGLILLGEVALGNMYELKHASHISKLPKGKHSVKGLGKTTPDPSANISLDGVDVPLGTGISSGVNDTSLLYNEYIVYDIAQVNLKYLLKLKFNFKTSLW
Measurement notes: PARP1 fluorescence polarization binding assay
Conditions used: binding IC50, GST-tagged PARP1 20 nM, PARPi-FL probe 3 nM, 4 h at RT
pIC50: −log10 of the molar value. Where a name gives a salt, the structure may show the parent alone.
Outcome measure: pIC50

1) CCc1cc2ncc(CN3CC4(C3)CN(C(=O)c3ccc(F)cc3F)C4)cc2[nH]c1=O [Compound No. 181, formate] = ≤ 5.52
2) CCc1cc2ncc(CNC3CC(Nc4ccc(C(=O)NC)nc4)C3)cc2[nH]c1=O (centres unmarked) = 5.52 to 7.00
3) CCc1cc2ncc(CN3CCCN(c4ccc(C(=O)NC)nc4)CC3)cc2[nH]c1=O = > 7.00
4) CCc1cc2ncc(CN3CC4CCC(C3)N4c3ccc(C(=O)NC)nc3)cc2[nH]c1=O = 5.52 to 7.00
5) CCc1cc2ncc(CN3CC4(C3)CN(c3ccc(C(=O)NC)nc3)C4)cc2[nH]c1=O [Compound No. 9, formate] = > 7.00
6) CCc1cc2ncc(CN3C4CCC3CN(c3ccc(C(=O)NC)nc3)C4)cc2[nH]c1=O = > 7.00
7) CCc1cc2ncc(CN3CC4CN(c5ccc(C(=O)NC)nc5)CC4C3)cc2[nH]c1=O (centres unmarked) = 5.52 to 7.00
8) CCc1cc2ncc(CN3CC4(C3)CN(c3ccc(C(=O)NC)nc3C)C4)cc2[nH]c1=O [Compound No. 139, formate] = 5.52 to 7.00
